Quick reference: Solubility in Toluene of the listed items.
# protocolDetails: Solubility measured with a toluene solution (absorbance of the supernatant of a supersaturated solution)
# Format: physicochemical
# studyConditions: room temperature, from absorbance and molar extinction coefficient
# Experimental: The solubility in toluene at room temperature can be determined from the absorbance in accordance with the Beer-Lambert law. First, a molar extinction coefficient is determined using a fullerene derivative toluene solution of a known concentration. A predetermined amount of the supernatant of a supersaturated fullerene derivative toluene solution is weighed, and the absorbance of this solution is measured. The concentration is calculated from the following equation. […]
Give the quantity in %, number only.

Observe how each entry below is paired with its result.
compound="CCCCCCC1N(c2ccccc2)CC23C4=c5ccc6c7ccc8c9ccc%10c%11ccc%12c%13c(c%14c%15c2c5c6c2c7c8c5c9c%10c(c%13%11)c%14c5c%152)C13C=%12C=C4 (stereo not shown) [Control Compound 2, reference compound]" readoutname="Solubility in Toluene" outputunit=% quantitativeresult=1.8
compound="CCCCOCC1N(c2ccccc2)C(c2ccccc2)C23c4c5c6c7c8c9c(c%10c%11c2c2c%12c4c4c%13c5c5c7c7c8c8c%14c9c%10c9c%10c%11c2c2c%11c%12c4c4c%12c%13c5c5c7c7c8c8c%14c9c9c%10c2c2c%11c4c4c%12c5c7c5c8c9c2c45)C613 (stereo not shown) [Compound 4]" readoutname="Solubility in Toluene" outputunit=% quantitativeresult=0.5
compound="C1=CC2=c3ccc4c5ccc6c7ccc8c9ccc%10c%11c%12c%13c%14c(c3c4c3c5c6c4c7c8c(c%119)c%13c4c%143)C23C(c2ccccc2)N(c2ccccc2)CC%123C=%101 (stereo not shown) [Control Compound 1, reference compound]" readoutname="Solubility in Toluene" outputunit=% quantitativeresult=0.3

Next, consider the following compound.
Would you mind telling me what Solubility in Toluene value was observed for CCCCCCC1N(c2ccccc2)C(CC(CC)CCCC)C23c4c5c6c7c8c9c(c%10c%11c2c2c%12c4c4c%13c5c5c7c7c8c8c%14c9c%10c9c%10c%11c2c2c%11c%12c4c4c%12c%13c5c5c7c7c8c8c%14c9c9c%10c2c2c%11c4c4c%12c5c7c5c8c9c2c45)C613 (stereo not shown) [Compound 8] ? 7.0
